- System: HeLa Kyoto
- protocol: melting temperature (median over replicates), in situ; higher = more thermally stable
- measurement conditions: cell cycle stage: G1/S
observed property: melting temperature (°C)
The figure you give is taken to be in °C; do not add the unit.

# annotated cases, reported melting temperature shown
sequence entry	assayed system	melting temperature (°C)
MSHGHSHGGGGCRCAAEREEPPEQRGLAYGLYLRIDLERLQCLNESREGSGRGVFKPWEERTDRSKFVESDADEELLFNIPFTGNVKLKGIIIMGEDDDSHPSEMRLYKNIPQMSFDDTEREPDQTFSLNRDLTGELEYATKISRFSNVYHLSIHISKNFGADTTKVFYIGLRGEWTELRRHEVTICNYEASANPADHRVHQVTPQTHFIS [PITHD1]	HeLa Kyoto	56.2
MGLLRIMMPPKLQLLAVVAFAVAMLFLENQIQKLEESRSKLERAIARHEVREIEQRHTMDGPRQDATLDEEEDMVIIYNRVPKTASTSFTNIAYDLCAKNKYHVLHINTTKNNPVMSLQDQVRFVKNITSWKEMKPGFYHGHVSYLDFAKFGVKKKPIYINVIRDPIERLVSYYYFLRFGDDYRPGLRRRKQGDKKTFDECVAEGGSDCAPEKLWLQIPFFCGHSSECWNVGSRWAMDQAKYNLINEYFLVGVTEELEDFIMLLEAALPRFFRGATELYRTGKKSHLRKTTEKKLPTKQTIAKLQQSDIWKMENEFYEFALEQFQFIRAHAVREKDGDLYILAQNFFYEKIYPKSN [HS2ST1]	HeLa Kyoto	55.1

Turning now to a further sequence:
Requested read-out: melting temperature. Entry: MAEKFDCHYCRDPLQGKKYVQKDGHHCCLKCFDKFCANTCVECRKPIGADSKEVHYKNRFWHDTCFRCAKCLHPLANETFVAKDNKILCNKCTTREDSPKCKGCFKAIVAGDQNVEYKGTVWHKDCFTCSNCKQVIGTGSFFPKGEDFYCVTCHETKFAKHCVKCNKAITSGGITYQDQPWHADCFVCVTCSKKLAGQRFTAVEDQYYCVDCYKNFVAKKCAGCKNPITGKRTVSRVSHPVSKARKPPVCHGKRLPLTLFPSANLRGRHPGGERTCPSWVVVLYRKNRSLAAPRGPGLVKAPVWWPMKDNPGTTTASTAKNAP [FHL1]
56.4

====

- Tested on: HeLa Kyoto
- protocol: solubility change mitosis vs G1/S (difference of NP-40 vs SDS log2 ratios) (log2 ratio difference); higher = more soluble in mitosis
observed property: solubility change mitosis (log2)
Give your answer as a number; write no unit.

Recorded results for 2 sequences are shown here.
sequence entry	assayed system	solubility change mitosis (log2)
MTAPCPPPPPDPQFVLRGTQSPVHALHFCEGAQAQGRPLLFSGSQSGLVHIWSLQTRRAVTTLDGHGGQCVTWLQTLPQGRQLLSQGRDLKLCLWDLAEGRSAVVDSVCLESVGFCRSSILAGGQPRWTLAVPGRGSDEVQILEMPSKTSVCALKPKADAKLGMPMCLRLWQADCSSRPLLLAGYEDGSVVLWDVSEQKVCSRIACHEEPVMDLDFDSQKARGISGSAGKALAVWSLDWQQALQVRGTHELTNPGIAEVTIRPDRKILATAGWDHRIRVFHWRTMQPLAVLAFHSAAVQCVAFTADGLLAAGSKDQRISLWSLYPRA [GNB1L]	HeLa Kyoto	-0.205
MGLFGKTQEKPPKELVNEWSLKIRKEMRVVDRQIRDIQREEEKVKRSVKDAAKKGQKDVCIVLAKEMIRSRKAVSKLYASKAHMNSVLMGMKNQLAVLRVAGSLQKSTEVMKAMQSLVKIPEIQATMRELSKEMMKAGIIEEMLEDTFESMDDQEEMEEEAEMEIDRILFEITAGALGKAPSKVTDALPEPEPPGAMAASEDEEEEEEALEAMQSRLATLRS [CHMP3]	HeLa Kyoto	-0.0644

So what does the record say about solubility change mitosis (log2) for MIALFNKLLDWFKALFWKEEMELTLVGLQYSGKTTFVNVIASGQFNEDMIPTVGFNMRKITKGNVTIKLWDIGGQPRFRSMWERYCRGVSAIVYMVDAADQEKIEASKNELHNLLDKPQLQGIPVLVLGNKRDLPGALDEKELIEKMNLSAIQDREICCYSISCKEKDNIDITLQWLIQHSKSRRS [ARL8A] ?
-0.116

Dear colleague, I am looking for the recorded solubility change mitosis (log2) of the following sequence: MADIDNKEQSELDQDLDDVEEVEEEETGEETKLKARQLTVQMMQNPQILAALQERLDGLVETPTGYIESLPRVVKRRVNALKNLQVKCAQIEAKFYEEVHDLERKYAVLYQPLFDKRFEIINAIYEPTEEECEWKPDEEDEISEELKEKAKIEDEKKDEEKEDPKGIPEFWLTVFKNVDLLSDMVQEHDEPILKHLKDIKVKFSDAGQPMSFVLEFHFEPNEYFTNEVLTKTYRMRSEPDDSDPFSFDGPEIMGCTGCQIDWKKGKNVTLKTIKKKQKHKGRGTVRTVTKTVSNDSFFNFFAPPEVPESGDLDDDAEAILAADFEIGHFLRERIIPRSVLYFTGEAIEDDDDDYDEEGEEADEEGEEEGDEENDPDYDPKKDQNPAECKQQ [NAP1L1]
-0.0741

Which solubility change mitosis (log2) value belongs to MAAWSPAAAAPLLRGIRGLPLHHRMFATQTEGELRVTQILKEKFPRATAIKVTDISGGCGAMYEIKIESEEFKEKRTVQQHQMVNQALKEEIKEMHGLRIFTSVPKR [BOLA3] ?
0.234

Sample MDAWVRFSAQSQARERLCRAAQYACSLLGHALQRHGASPELQKQIRQLESHLSLGRKLLRLGNSADALESAKRAVHLSDVVLRFCITVSHLNRALYFACDNVLWAGKSGLAPRVDQEKWAQRSFRYYLFSLIMNLSRDAYEIRLLMEQESSACSRRLKGSGGGVPGGSETGGLGGPGTPGGGLPQLALKLRLQVLLLARVLRGHPPLLLDVVRNACDLFIPLDKLGLWRCGPGIVGLCGLVSSILSILTLIYPWLRLKP [PEX11B] — what was its solubility change mitosis (log2)?
0.18

// lookup solubility change mitosis (log2) for MGSTESSEGRRVSFGVDEEERVRVLQGVRLSENVVNRMKEPSSPPPAPTSSTFGLQDGNLRAPHKESTLPRSGSSGGQQPSGMKEGVKRYEQEHAAIQDKLFQVAKREREAATKHSKASLPTGEGSISHEEQKSVRLARELESREAELRRRDTFYKEQLERIERKNAEMYKLSSEQFHEAASKMESTIKPRRVEPVCSGLQAQILHCYRDRPHEVLLCSDLVKAYQRCVSAAHKG [CHCHD6]
0.232

src = the supplement of paper PMC5998384
